Test system: A375 melanoma
method: MTT proliferation inhibition, A375
Assay type: cell-based
recordedConditions: Homo sapiens, A-375, read-out: Proliferation inhibition rate, A375 Melanoma
Each entry below carries its reported inhibition at 1 µM.
propertyName: inhibition at 1 µM

[[record]]
molecule = "CO[C@H]1C(=O)[C@]2(C)[C@@H](OC)C[C@H]3OC[C@@]3(OC(C)=O)[C@H]2[C@H](OC(=O)c2ccccc2)[C@]23OC(=O)O[C@H]2[C@H](OC(=O)[C@H](O)[C@@H](NC(=O)OC(C)(C)C)c2ccccn2)C(C)=C1C3(C)C [PCMI-04]"
assaysystem = "A375 melanoma"
propertyname = "inhibition at 1 µM"
result = "82.2%"

[[record]]
molecule = "COC(=O)O[C@H]1C[C@H]2OC[C@@]2(OC(C)=O)[C@H]2[C@H](OC(=O)c3ccccc3)[C@]34OC(=O)O[C@H]3[C@H](OC(=O)[C@H](O)[C@@H](NC(=O)OC(C)(C)C)c3ccccn3)C(C)=C([C@@H](OC)C(=O)[C@]12C)C4(C)C [PCMI-18]"
assaysystem = "A375 melanoma"
propertyname = "inhibition at 1 µM"
result = "95.1%"


====

method: In vivo oral bioavailability assay in rats
recordedConditions: male, Sprague-Dawley, plasma; rat, intravenous administration 5 mg/kg
propertyName: AUC(0-inf) (ng·h/mL)

[[record]]
entrysmiles = "CO[C@H]1C[C@H]2OC[C@@]2(OC(C)=O)[C@H]2[C@H](OC(=O)c3ccccc3)[C@]34OC(=O)O[C@H]3[C@H](OC(=O)[C@H](O)[C@@H](NC(=O)OC(C)(C)C)c3ccccc3)C(C)=C([C@@H](OC(=O)N(C)C)C(=O)[C@]12C)C4(C)C"
u = "ng·h/mL"
readoutnumber = 4050


====

System: A375 melanoma
method: MTT proliferation inhibition, A375
Format: cell-based
recordedConditions: Homo sapiens, A-375, read-out: Proliferation inhibition rate, A375 Melanoma
In this section we review reported inhibition at 1 µM values for a set of compounds.
propertyName: inhibition at 1 µM (%)

[[record]]
entrysmiles = "CO[C@H]1C[C@H]2OC[C@@]2(OC(C)=O)[C@H]2[C@H](OC(=O)c3ccccc3)[C@]34OC(=O)O[C@H]3[C@H](OC(=O)[C@H](O)[C@@H](NC(=O)OC(C)(C)C)c3ccccn3)C(C)=C([C@@H](OC(=O)N(C)C)C(=O)[C@]12C)C4(C)C"
u = "%"
readoutnumber = 96.9

[[record]]
entrysmiles = "COC(=O)O[C@H]1C[C@H]2OC[C@@]2(OC(C)=O)[C@H]2[C@H](OC(=O)c3ccccc3)[C@]34OC(=O)O[C@H]3[C@H](OC(=O)[C@H](O)[C@@H](NC(=O)N(C)C)c3ccccc3)C(C)=C([C@@H](OC)C(=O)[C@]12C)C4(C)C"
u = "%"
readoutnumber = 95.2

[[record]]
entrysmiles = "CO[C@H]1C(=O)[C@]2(C)[C@@H](OC)C[C@H]3OC[C@@]3(OC(C)=O)[C@H]2[C@H](OC(=O)c2ccccc2)[C@]23OC(=O)O[C@H]2[C@H](OC(=O)[C@H](O)[C@@H](NC(=O)OC(C)(C)C)c2ccccc2)C(C)=C1C3(C)C"
u = "%"
readoutnumber = 90.8

[[record]]
entrysmiles = "CO[C@H]1C(=O)[C@]2(C)[C@@H](OC)C[C@H]3OC[C@@]3(OC(C)=O)[C@H]2[C@H](OC(=O)c2ccccc2)[C@]23OC(=O)O[C@H]2[C@H](OC(=O)[C@H](O)[C@@H](NC(=O)N(C)C)c2ccccc2)C(C)=C1C3(C)C"
u = "%"
readoutnumber = 88.6

[[record]]
entrysmiles = "CO[C@H]1C(=O)[C@]2(C)[C@@H](OC(=O)N(C)C)C[C@H]3OC[C@@]3(OC(C)=O)[C@H]2[C@H](OC(=O)c2ccccc2)[C@]23OC(=O)O[C@H]2[C@H](OC(=O)[C@H](O)[C@H](CC(C)C)NC(=O)OC(C)(C)C)C(C)=C1C3(C)C"
u = "%"
readoutnumber = 96.3

[[record]]
entrysmiles = "CO[C@H]1C(=O)[C@]2(C)CC[C@H]3OC[C@@]3(OC(C)=O)[C@H]2[C@H](OC(=O)c2ccccc2)[C@]23OC(=O)O[C@H]2[C@H](OC(=O)[C@H](O)[C@@H](NC(=O)OC(C)(C)C)c2ccccc2)C(C)=C1C3(C)C"
u = "%"
readoutnumber = 92.5

[[record]]
entrysmiles = "CCSC(=O)O[C@H]1C[C@H]2OC[C@@]2(OC(C)=O)[C@H]2[C@H](OC(=O)c3ccccc3)[C@]34OC(=O)O[C@H]3[C@H](OC(=O)[C@H](O)[C@@H](NC(=O)OC(C)(C)C)c3ccccc3)C(C)=C([C@@H](OC)C(=O)[C@]12C)C4(C)C"
u = "%"
readoutnumber = 96.7

[[record]]
entrysmiles = "COC(=O)O[C@H]1C[C@H]2OC[C@@]2(OC(C)=O)[C@H]2[C@H](OC(=O)c3ccccc3)[C@]34OC(=O)O[C@H]3[C@H](OC(=O)[C@H](O)[C@@H](NC(=O)OC(C)(C)C)c3ccccc3)C(C)=C([C@@H](OC)C(=O)[C@]12C)C4(C)C"
u = "%"
readoutnumber = 94.9

[[record]]
entrysmiles = "COC(=O)O[C@H]1C(=O)[C@]2(C)[C@@H](OC)C[C@H]3OC[C@@]3(OC(C)=O)[C@H]2[C@H](OC(=O)c2ccccc2)[C@]23OC(=O)O[C@H]2[C@H](OC(=O)[C@H](O)[C@@H](NC(=O)OC(C)(C)C)c2ccccc2)C(C)=C1C3(C)C"
u = "%"
readoutnumber = 92

[[record]]
entrysmiles = "CCSC(=O)O[C@H]1C(=O)[C@]2(C)[C@@H](OC)C[C@H]3OC[C@@]3(OC(C)=O)[C@H]2[C@H](OC(=O)c2ccccc2)[C@]23OC(=O)O[C@H]2[C@H](OC(=O)[C@H](O)[C@@H](NC(=O)OC(C)(C)C)c2ccccc2)C(C)=C1C3(C)C"
u = "%"
readoutnumber = 93.1

[[record]]
entrysmiles = "CO[C@H]1C(=O)[C@]2(C)[C@@H](OC(=O)N(C)C)C[C@H]3OC[C@@]3(OC(C)=O)[C@H]2[C@H](OC(=O)c2ccccc2)[C@]23OC(=O)O[C@H]2[C@H](OC(=O)[C@H](O)[C@@H](NC(=O)OC(C)(C)C)c2ccccc2)C(C)=C1C3(C)C"
u = "%"
readoutnumber = 95.3

[[record]]
entrysmiles = "CO[C@H]1C[C@H]2OC[C@@]2(OC(C)=O)[C@H]2[C@H](OC(=O)c3ccccc3)[C@]34OC(=O)O[C@H]3[C@H](OC(=O)[C@H](O)[C@@H](NC(=O)N(C)C)c3ccccc3)C(C)=C([C@@H](OC(=O)N(C)C)C(=O)[C@]12C)C4(C)C"
u = "%"
readoutnumber = 92.4

[[record]]
entrysmiles = "CO[C@H]1C[C@H]2OC[C@@]2(OC(C)=O)[C@H]2[C@H](OC(=O)c3ccccc3)[C@]34OC(=O)O[C@H]3[C@H](OC(=O)[C@H](O)[C@H](CC(C)C)NC(=O)OC(C)(C)C)C(C)=C([C@@H](OC(=O)N(C)C)C(=O)[C@]12C)C4(C)C"
u = "%"
readoutnumber = 94.2

